test system: RSV A2 strain; experiment: In vitro CPE (CytoPathic Effect) inhibition effect evaluation test, RSV type A; type: cell-based; settings: human respiratory syncytial virus; inhibitory effect against RSV type A (RSV A2 strain), HEp-2 cells, CPE inhibition; read-out: EC50
quantityName: EC50

// known answers, use as guide
molecule="CC(F)(F)c1nc(N2CC3(CCCCC3)c3cc(O[C@H]4CC[C@H](N5CC(F)(F)C5)CC4)ncc32)ncc1C(=O)NC1(C(=O)O)C2CC3CC(C2)CC1C3 (stereo partly drawn)" result="< 10 nM"
molecule="O=C(NC1(C(=O)O)C2CC3CC(C2)CC1C3)c1cnc(-c2cn(C3CCC(F)(F)CC3)c3cc(C(=O)N4CCN(c5ncc(F)cn5)CC4)ccc23)nc1C(F)(F)F (stereo not drawn)" result="< 10 nM"
molecule="CC(F)(F)c1nc(N2CC3(CC3)c3cc(OC4CCN(CC(F)(F)F)CC4)ccc32)ncc1C(=O)NC1(C(=O)O)C2CC3CC(C2)CC1C3 (stereo not drawn)" result="< 10 nM"
molecule=O=C(NC1(C(=O)O)CCC(F)(F)CC1)c1cnc(N2CCc3cc(OC4CCN(c5ncccn5)CC4)ccc32)nc1C(F)(F)F result="10 to 100 nM"
molecule="O=C(NC1(C(=O)O)C2CC3CC(C2)CC1C3)c1cnc(N2CC3(CCOCC3)c3cc(OC4CCN(CC(F)(F)F)CC4)ccc32)nc1C(F)(F)F (stereo not drawn)" result="< 10 nM"

Kindly consider the entry below.
In plain terms, CC(F)(F)c1nc(N2CC3(CCOCC3)c3cc(OC4CCN(CC(F)(F)F)CC4)ncc32)ncc1C(=O)NC1(C(=O)O)C2CC3CC(C2)CC1C3 (stereo not drawn) has a documented EC50 of < 10 nM

----------
test system: RSV A2 strain; assay: In vitro CPE (CytoPathic Effect) inhibition effect evaluation test, RSV type A; type: cell-based; settings: human respiratory syncytial virus; inhibitory effect against RSV type A (RSV A2 strain), HEp-2 cells, CPE inhibition; read-out: EC50
Provide the recorded EC50 for the entries that follow.

Worked cases, EC50 given:
compound="O=C(NC1(C(=O)O)C2CC3CC(C2)CC1C3)c1ccc(-c2cn(C3CCCC3)c3cc(OC4CCN(c5ncccn5)CC4)ccc23)nc1C(F)(F)F (stereo not drawn)" result="< 0.01 µM"
compound="O=C(NC1(C(=O)O)C2CC3CC(C2)CC1C3)c1cnc(-c2cn(C3CCC(F)(F)CC3)c3cc(OCc4ccc5c(c4)OCC5)ccc23)nc1C(F)(F)F (stereo not drawn)" result="< 0.01 µM"
compound="CC(F)(F)c1nc(N2CC3(CCCCC3)c3cc(C(=O)N4CCC(C(F)F)CC4)ccc32)ncc1C(=O)NC1(C(=O)O)C2CC3CC(C2)CC1C3 (stereo not drawn)" result="< 0.01 µM"

List reported EC50 for each of these compounds:
1. NC(=O)[C@@]1(NC(=O)c2cnc(N3CC4(CCOCC4)c4cc(OC5CCN(c6ncccn6)CC5)ccc43)nc2C(F)(F)F)[C@@H]2CC3C[C@H]1C[C@@](F)(C3)C2
2. COc1cccc(COc2ccc3c(c2)CCN3c2ncc(C(=O)NC3(C(=O)O)CCCCC3)c(C(F)(F)F)n2)c1
3. Cc1csc(COc2ccc3c(c2)CCN3c2ncc(C(=O)NC3(C(=O)O)CCCCC3)c(C(F)(F)F)n2)n1

Given back:
1. < 0.01 µM
2. 0.01 to 0.1 µM
3. < 0.01 µM

----------
tested on: RSV A2 strain; assay: In vitro CPE (CytoPathic Effect) inhibition effect evaluation test, RSV type A; assay type: cell-based; conditions: human respiratory syncytial virus; inhibitory effect against RSV type A (RSV A2 strain), HEp-2 cells, CPE inhibition; read-out: EC50
What EC50 was measured for each of the following?

compound="O=C(NC1(C(=O)O)C2CC3CC(C2)CC1C3)c1cnc(-c2cn(C3CCC(F)(F)CC3)c3cc(OC4CCC5(CC4)CN(c4ncccn4)C5)ccc23)nc1C(F)(F)F (centres unmarked) [Compound I-369]" testsystem="RSV A2 strain" quantityname=EC50 result="< 10 nM"

Return reported EC50 values for all items listed beneath this line.
1. O=C(NC1(C(=O)O)CCCCC1)c1cnc(N2CCc3cc(OCCNc4ncccn4)ccc32)nc1C(F)(F)F [Compound I-52]
2. COCCCCOc1ccc2c(c1)CCN2c1ncc(C(=O)NC2(C(=O)O)CC3CCC2C3)c(C(F)(F)F)n1 (centres unmarked) [Compound I-11]
3. O=C(NC1(C(=O)O)C2CC3CC(C2)CC1C3)c1cnc(N2CC3(CCCCC3)c3cc(OC4CCN(c5cnccn5)CC4)ccc32)nc1C(F)(F)F (centres unmarked) [Compound I-523]
4. CC(F)(F)CN1CCC(Oc2ccc3c(-c4ncc(C(=O)NC5(C(=O)O)C6CC7CC(C6)CC5C7)c(C(F)(F)F)n4)cn(C4CCOCC4)c3c2)CC1 (centres unmarked) [Compound I-578]
5. O=C(NC1(C(=O)O)CCCCC1)c1cnc(N2CC3(CC3)c3cc(Br)ccc32)nc1C(F)(F)F [Compound I-10]

Given back:
1. 10 to 100 nM
2. < 10 nM
3. < 10 nM
4. < 10 nM
5. 100 to 5000 nM

----------
system: RSV A2 strain; assay: In vitro CPE (CytoPathic Effect) inhibition effect evaluation test, RSV type A; assay type: cell-based; details: human respiratory syncytial virus; inhibitory effect against RSV type A (RSV A2 strain), HEp-2 cells, CPE inhibition; read-out: EC50
Task for the reader: assign each of the following molecules its reported EC50.

Sample records with EC50:
molecule="COc1cccc(COc2ccc3c(ccn3-c3ncc(C(=O)NC4(C(=O)O)CC5CCC4C5)c(C(F)(F)F)n3)c2)c1 (single isomer, unassigned)" quantityname=EC50 result="< 10 nM"
molecule="CC(F)(F)c1nc(-c2cn(C3CCC(F)(F)CC3)c3cc(O[C@H]4C[C@@H](N5CC(F)(F)C5)C4)ccc23)ncc1C(=O)NC1(C(=O)O)C2CC3CC(C2)CC1C3 (single isomer, unassigned)" quantityname=EC50 result="< 10 nM"
molecule=O=C(N[C@@]1(C(=O)O)[C@@H]2C[C@@H]3C[C@H]1C[C@@](F)(C3)C2)c1cnc(N2CCc3cc(OCCC4CCOCC4)ccc32)nc1C(F)(F)F quantityname=EC50 result="< 10 nM"
molecule="CC(F)(F)c1nc(N2CCc3cc(OCCC4CCOCC4)ccc32)ncc1C(=O)NC1(C(=O)O)C2CC3CC(C2)CC1C3 (centres unmarked)" quantityname=EC50 result="< 10 nM"
molecule="COCCn1cc(-c2ncc(C(=O)NC3(C(=O)O)C4CC5CC(C4)CC3C5)c(C(F)(F)F)n2)c2ccc(OCCC3CCOCC3)cc21 (centres unmarked)" quantityname=EC50 result="< 10 nM"
molecule="CC(F)(F)c1nc(N2CC3(CCOCC3)c3cc(OC4CCN(CCC(F)(F)F)CC4)ccc32)ncc1C(=O)NC1(C(=O)O)C2CC3CC(C2)CC1C3 (centres unmarked)" quantityname=EC50 result="< 10 nM"
molecule="CC(C)n1cc(-c2ncc(C(=O)NC3(C(=O)O)C4CC5CC(C4)CC3C5)c(C(F)(F)F)n2)c2ccc(O[C@H]3CC[C@H](N4CC(F)(F)C4)CC3)cc21 (some centres unmarked)" quantityname=EC50 result="< 10 nM"
molecule="CS(=O)(=O)CCN1CCC(Oc2ccc3c(-c4ncc(C(=O)NC5(C(=O)O)C6CC7CC(C6)CC5C7)c(C(F)(F)F)n4)cn(C4CCC(F)(F)CC4)c3c2)CC1 (centres unmarked)" quantityname=EC50 result="10 to 100 nM"

// for each molecule in input: emit EC50
1. CC(F)(F)c1nc(N2CC3(CCCCC3)c3cc(-n4ncc5c4CCN(CC(F)(F)F)C5)ccc32)ncc1C(=O)NC1(C(=O)O)C2CC3CC(C2)CC1C3 (centres unmarked)
2. COc1cccc(COc2ccc3c(c2)CCN3c2ncc(C(=O)NC3(C(=O)O)CCOCC3)c(C(F)(F)F)n2)c1
3. CC(F)(F)c1nc(N2CC3(CCOCC3)c3cc(O[C@H]4CC[C@H](c5ncc(F)cn5)CC4)ccc32)ncc1C(=O)NC1(C(=O)O)C2CC3CC(C2)CC1C3 (some centres unmarked)

Given back:
1: < 10 nM; 2: 100 to 5000 nM; 3: < 10 nM

----------
tested on: RSV A2 strain; experiment: In vitro CPE (CytoPathic Effect) inhibition effect evaluation test, RSV type A; assay type: cell-based; settings: human respiratory syncytial virus; inhibitory effect against RSV type A (RSV A2 strain), HEp-2 cells, CPE inhibition; read-out: EC50
Can you tell me EC50 for the items I'm about to list?

molecule="O=C(NC1(C(=O)O)C2CC3CC(C2)CC1C3)c1ccc(-c2cn(C3CCC4(CC3)COC4)c3cc(O[C@H]4CC[C@H](N5CC(F)(F)C5)CC4)ccc23)nc1C(F)(F)F (stereo partly drawn) [Compound I-582]" testsystem="RSV A2 strain" quantityname=EC50 result="< 10 nM"
molecule="O=C(NC1(C(=O)O)C2CC3CC(C2)CC1C3)c1cnc(N2CC3(CCCCC3)c3cc(OC4CCC5(CC4)COC5)ccc32)nc1C(F)(F)F (stereo not drawn) [Compound I-399]" testsystem="RSV A2 strain" quantityname=EC50 result="< 10 nM"

Now consider a different molecule.
// EC50 (RSV A2 strain) for O=C(NC1(C(=O)O)CCCCC1)c1cnc(N2CCc3cc(C4=CCCN(Cc5ccccc5)C4)ccc32)nc1C(F)(F)F [Compound I-70] = 10 to 100 nM

Every entry's value here was drawn from patent US12528790B2.
